meta.source: patent US11945798B2

# assay-target: EGFR del19/T790M/C797S (Homo sapiens, UniProt P00533, C797S/DEL746-750/T790M)
# Sequence (P00533 with tags, fused parts or gaps DEL746-750/T790M/C797S): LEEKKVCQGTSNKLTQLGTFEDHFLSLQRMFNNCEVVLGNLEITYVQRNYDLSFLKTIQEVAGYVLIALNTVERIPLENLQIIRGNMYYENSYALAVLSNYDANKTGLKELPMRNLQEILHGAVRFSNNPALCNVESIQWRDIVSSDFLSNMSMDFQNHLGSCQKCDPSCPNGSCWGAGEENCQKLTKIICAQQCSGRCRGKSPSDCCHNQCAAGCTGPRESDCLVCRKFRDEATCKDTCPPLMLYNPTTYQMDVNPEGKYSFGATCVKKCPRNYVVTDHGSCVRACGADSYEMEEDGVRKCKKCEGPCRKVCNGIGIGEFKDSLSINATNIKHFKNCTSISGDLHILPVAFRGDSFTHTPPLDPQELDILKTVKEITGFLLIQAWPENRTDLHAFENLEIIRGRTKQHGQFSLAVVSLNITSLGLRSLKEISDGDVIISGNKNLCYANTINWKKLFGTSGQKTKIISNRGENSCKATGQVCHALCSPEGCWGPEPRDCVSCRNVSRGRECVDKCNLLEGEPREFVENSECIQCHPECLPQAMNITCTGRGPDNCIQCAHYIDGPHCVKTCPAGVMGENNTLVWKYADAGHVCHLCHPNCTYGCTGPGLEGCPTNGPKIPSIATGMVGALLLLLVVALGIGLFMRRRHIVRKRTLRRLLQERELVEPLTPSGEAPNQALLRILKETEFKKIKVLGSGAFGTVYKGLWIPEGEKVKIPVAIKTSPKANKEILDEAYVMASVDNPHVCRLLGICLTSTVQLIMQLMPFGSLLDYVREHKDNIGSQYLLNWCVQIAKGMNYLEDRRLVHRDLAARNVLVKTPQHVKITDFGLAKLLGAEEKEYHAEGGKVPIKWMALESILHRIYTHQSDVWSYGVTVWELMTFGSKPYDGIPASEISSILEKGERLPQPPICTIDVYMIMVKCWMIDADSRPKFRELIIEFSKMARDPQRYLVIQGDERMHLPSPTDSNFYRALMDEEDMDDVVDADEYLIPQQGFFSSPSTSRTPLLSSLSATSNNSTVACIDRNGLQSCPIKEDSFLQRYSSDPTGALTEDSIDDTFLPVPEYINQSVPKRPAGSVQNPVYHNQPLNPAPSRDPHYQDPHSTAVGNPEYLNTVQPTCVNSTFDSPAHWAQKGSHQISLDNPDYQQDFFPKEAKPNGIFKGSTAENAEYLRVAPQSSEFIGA
# assay-name: Biochemical EGFR kinase assay (Lance Ultra TR-FRET), del19/T790M/C797S
# measurement-context: Km ATP; read-out: IC50 del19/T790M/C797S (nM) Km ATP
I'd appreciate it if you could supply log10(IC50) values for the items below.
Please note: log10 values; quantity IC50; unit nM.

Here's what some known entries look like.
- molecule: "CN[C@H]1CC[C@H](CNc2cc(Nc3ccnc(-c4cnn(S(=O)(=O)C5CC5)c4)n3)ncc2C(=O)C2CC2)CC1"
  log10(IC50): -1.00
- molecule: "O=C(c1cnc(Nc2ccnc(-c3cnn(S(=O)(=O)C4CC4)c3)n2)cc1N[C@H]1CC[C@@H](CO)CC1)C(F)F"
  log10(IC50): -0.40
- molecule: "CN(C)Cc1ccc(CNc2cc(Nc3ccnc(-c4cnn(C(F)F)c4)n3)ncc2C(=O)C2CC2)cc1"
  log10(IC50): 0.36
- molecule: "O=C(c1cnc(Nc2ccnc(-c3cnn(S(=O)(=O)C4CC4)c3)n2)cc1NCCF)C1CC1"
  log10(IC50): -0.05
- molecule: "CN(C)Cc1ccc(CNc2cc(Nc3ccnc(-c4cnn(S(=O)(=O)C5CC5)c4)n3)ncc2C(=O)C2CC2)s1"
  log10(IC50): 0.34

Hi, could you look up log10(IC50) for each item in my list?
1. CC(=O)c1cnc(Nc2ccnc(-c3cnn(S(=O)(=O)C4CC4)c3)n2)cc1OC[C@H]1CC[C@H](CN(C)C)CC1
2. O=C(c1cnc(Nc2ccnc(-c3cnn(S(=O)(=O)C4CC4)c3)n2)cc1NC1CCCN(CCF)C1)C1CC1 (centres unmarked)
3. CC(C)Nc1cc(Nc2ccnc(-c3cnn(S(=O)(=O)C4CC4)c3)n2)ncc1C(=O)C1CC1
4. O=C(c1cnc(Nc2ccnc(-c3cnn(S(=O)(=O)C4CC4)c3)n2)cc1NCCC1CCOC1)C1CC1 (centres unmarked)
5. O=C(c1cnc(Nc2ccnc(-c3cnn(S(=O)(=O)C4CC4)c3)n2)cc1NCCCO)C1CC1
6. C[C@]1(O)CC[C@@H](Nc2cc(Nc3ccnc(-c4cnn(S(=O)(=O)C5CC5)c4)n3)ncc2C(=O)C2CC2)CC1

# output
-0.15
0.46
0.58
-0.22
-0.15
0.00
